Target: human ALK6 (Homo sapiens (Human), UniProt O00238)
Sequence (O00238 14-502): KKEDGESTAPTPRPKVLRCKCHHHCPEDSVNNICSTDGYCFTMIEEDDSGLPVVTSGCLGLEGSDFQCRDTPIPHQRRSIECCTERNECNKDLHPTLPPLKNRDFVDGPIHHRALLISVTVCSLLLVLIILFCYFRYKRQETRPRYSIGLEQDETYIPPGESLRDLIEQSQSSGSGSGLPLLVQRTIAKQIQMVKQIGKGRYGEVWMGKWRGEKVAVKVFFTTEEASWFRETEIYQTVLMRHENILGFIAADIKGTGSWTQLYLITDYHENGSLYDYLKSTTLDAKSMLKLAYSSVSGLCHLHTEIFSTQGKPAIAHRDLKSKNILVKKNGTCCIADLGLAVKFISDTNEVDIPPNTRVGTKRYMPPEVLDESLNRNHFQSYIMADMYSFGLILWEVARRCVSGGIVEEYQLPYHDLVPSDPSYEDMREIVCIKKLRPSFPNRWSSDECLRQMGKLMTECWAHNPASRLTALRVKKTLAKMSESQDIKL
Test: ALK6 enzyme inhibitory effect (33P-ATP kinase assay, Reaction Biology)
Format: biochemical
Conditions: ALK6, test compound 300 nM; read-out: Inhibition rate at 300 nM
Text: ALK Enzyme Inhibitory Effect Evaluation conditions were described in the following web pages. http://www.reactionbiology.corrilwebapps/site/Kinase_Assay_Protocol.aspx http://www.reactionbiology.corrilwebapps/site/KinaseDetail.aspx?page=Kinases&id=1
experimental_readout: inhibition at 0.3 µM
The reply should read as a number followed by its unit.

Query string: For CCn1cc(-c2ccnc(Nc3ccc(N4CCN(CC(C)(C)O)CC4)cc3)n2)c(-c2cccnc2)n1 [Example 104] , what is its reported inhibition at 0.3 µM?
Result string: 93.5%

----------
System: BMP signal in MDA-231-D-BREFluc/Rluc cells
Assay: BMP signal inhibitory effect (AlphaScreen SureFire SMAD1 p-Ser463/465, BMP-6 stimulation)
Assay type: cell-based
Settings: BMP-6 stimulated MDA-231-D-BREFluc/Rluc cells, phospho-SMAD1 AlphaScreen; read-out: IC50
As shown below, each of these compounds has a reported pIC50 value.
# pIC50 is unitless: minus log10 of the molar concentration; print number only

INSERT INTO measurements (compound, experimental_readout, meas_value) VALUES
  ('CCn1cc(-c2ccnc(Nc3ccc(-n4cnc(C)n4)cc3)n2)c(-c2cccnc2)n1', 'pIC50', 7.73),
  ('CCn1cc(-c2ccnc(Nc3ccc(OC4CN(CC(C)(C)O)C4)cc3)n2)c(-c2cccnc2)n1', 'pIC50', 7.88),
  ('CCn1cc(-c2ccnc(Nc3ccc4c(c3)CCN(CCOC)CC4)n2)c(-c2cccnc2)n1', 'pIC50', 8.42),
  ('CCn1cc(-c2ccnc(Nc3ccc(C(=O)N4CCN(C(C)C)CC4)cc3)n2)c(-c2cccnc2)n1', 'pIC50', 8.30),
  ('CCn1cc(-c2ccnc(Nc3ccc4c(c3)CCN(C)CC4)n2)c(-c2cccnc2)n1', 'pIC50', 8.96);

Query string: For CC(C)N1CCN(C(=O)c2ccc(Nc3nccc(-c4cn(CCc5ccccc5)nc4-c4cccnc4)n3)cc2)CC1 , what is its reported pIC50?
Result string: 7.90

Query string: What do you get for CCn1cc(-c2ccnc(Nc3ccc(C4CCCN(C)C4)cc3)n2)c(-c2cccnc2)n1 (stereo not shown) ?
Result string: 8.10

Query string: What do you get for COCCn1cc(-c2ccnc(Nc3ccc4c(c3)CCN(C)C4)n2)c(-c2cccnc2)n1 ?
Result string: 8.40

Query string: What do you get for CCn1cc(-c2ccnc(Nc3cnn(C4CN(CC(C)(C)O)C4)c3)n2)c(-c2cccnc2)n1 ?
Result string: 7.67

----------
As shown below, each of these molecules has a reported pIC50 value.
System: BMP signal in MDA-231-D-BREFluc/Rluc cells
Assay: BMP signal inhibitory effect (AlphaScreen SureFire SMAD1 p-Ser463/465, BMP-6 stimulation)
Format: cell-based
Settings: BMP-6 stimulated MDA-231-D-BREFluc/Rluc cells, phospho-SMAD1 AlphaScreen; read-out: IC50
# pIC50 is unitless: minus log10 of the molar concentration; print number only

In the examples that follow, each entry is paired with its recorded pIC50.
INSERT INTO measurements (molecule, meas_value) VALUES
  ('CCn1cc(-c2ccnc(Nc3ccc(N4CCNCC4)nc3)n2)c(-c2cccnc2)n1 [Example 155]', 8.07),
  ('CCn1cc(-c2ccnc(Nc3ccc4c(c3)CCN(C3CC3)CC4)n2)c(-c2cccnc2)n1 [Example 66]', 8.19),
  ('CCn1cc(-c2ccnc(Nc3ccc4c(c3)CN(CCOC)C4)n2)c(-c2cccnc2)n1 [Example 61]', 8.15);

Query string: For CN1CCc2cc(Nc3nccc(-c4cn(CC(C)(C)O)nc4-c4cccnc4)n3)ccc2C1 [Example 65] , what is its reported pIC50?
Result string: 8.48

Query string: What do you get for CCn1cc(-c2ccnc(Nc3ccc(C4CCN(CCOC)CC4)cc3)n2)c(-c2cccnc2)n1 [Example 58] ?
Result string: 8.36

Query string: What do you get for CCn1cc(-c2ccnc(Nc3ccc(N4CCC(N)(CC)CC4)cc3)n2)c(-c2cccnc2)n1 [Example 177] ?
Result string: 8.07

Query string: What do you get for COCCN1CCN(c2ccc(Nc3nccc(-c4cn(CC5(C)COC5)nc4-c4cccnc4)n3)cc2)CC1 [Example 77] ?
Result string: 7.29

Query string: What do you get for CCn1cc(-c2ccnc(Nc3cc(F)c(N4CCNCC4)c(F)c3)n2)c(-c2cccnc2)n1 [Example 153] ?
Result string: 8.19

Query string: What do you get for CCn1cc(-c2ccnc(Nc3cccc(N4CCNCC4)c3)n2)c(-c2cccnc2)n1 [Example 158] ?
Result string: 7.73

Query string: What do you get for CCn1cc(-c2ccnc(Nc3ccc(-c4nnc(C)s4)cc3)n2)c(-c2cccnc2)n1 [Example 56] ?
Result string: 7.75

Query string: What do you get for c1cncc(-c2nn(C3COC3)cc2-c2ccnc(Nc3ccc(N4CCNCC4)cc3)n2)c1 [Example 137] ?
Result string: 7.45

----------
Test system: BMP signal in MDA-231-D-BREFluc/Rluc cells
Assay: BMP signal inhibitory effect (AlphaScreen SureFire SMAD1 p-Ser463/465, BMP-6 stimulation)
Assay type: cell-based
Conditions: BMP-6 stimulated MDA-231-D-BREFluc/Rluc cells, phospho-SMAD1 AlphaScreen; read-out: IC50
experimental_readout: pIC50
# pIC50 is unitless: minus log10 of the molar concentration; print number only

In the examples that follow, each entry is paired with its recorded pIC50.
INSERT INTO assay_data (compound, meas_value) VALUES
  ('CCn1cc(-c2ccnc(Nc3ccc(C(N)=O)cc3)n2)c(-c2cccnc2)n1 [Example 23]', 7.47),
  ('CCn1cc(-c2ccnc(Nc3ccc(OC4CNC4)cc3)n2)c(-c2cccnc2)n1 [Example 145]', 7.79),
  ('CCn1cc(-c2ccnc(Nc3ccc(-c4cnco4)cc3)n2)c(-c2cccnc2)n1 [Example 70]', 7.47);

Would you kindly look at the next entry?
Query string: For CCn1cc(-c2ccnc(Nc3ccc4c(c3)CN(CC(C)(C)O)CC4)n2)c(-c2cccnc2)n1 [Example 106] , what is its reported pIC50?
Result string: 8.46

----------
Molecular target: UniProt P36894
Sequence (P36894 24-532): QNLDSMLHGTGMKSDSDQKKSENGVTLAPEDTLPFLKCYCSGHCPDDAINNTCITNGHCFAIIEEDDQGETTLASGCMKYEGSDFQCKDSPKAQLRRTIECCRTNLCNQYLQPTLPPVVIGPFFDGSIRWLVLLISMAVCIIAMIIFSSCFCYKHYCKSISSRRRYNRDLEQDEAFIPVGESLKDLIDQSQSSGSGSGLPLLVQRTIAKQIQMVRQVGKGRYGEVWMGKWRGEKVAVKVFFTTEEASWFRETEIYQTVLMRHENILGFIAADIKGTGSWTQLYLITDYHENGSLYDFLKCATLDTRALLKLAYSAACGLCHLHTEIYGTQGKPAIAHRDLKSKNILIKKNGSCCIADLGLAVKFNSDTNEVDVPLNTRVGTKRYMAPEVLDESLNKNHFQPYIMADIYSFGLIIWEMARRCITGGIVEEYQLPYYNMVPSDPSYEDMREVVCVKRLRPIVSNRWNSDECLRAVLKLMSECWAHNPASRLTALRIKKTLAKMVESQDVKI
Assay: ALK3 enzyme inhibitory effect (33P-ATP kinase assay, Reaction Biology)
Type: biochemical
Conditions: ALK3, test compound 370 nM (asterisk footnote); read-out: inhibition rate at 370 nM
experimental_readout: inhibition at 0.37 µM (%)
// return numeric value only (unit: %, not printed)

In the examples that follow, each entry is paired with its recorded inhibition at 0.37 µM.
INSERT INTO assay_data (molecule, experimental_readout, meas_value) VALUES
  ('CN1CCN(c2ccc(Nc3nccc(-c4c[nH]nc4-c4cccnc4)n3)cc2)CC1', 'inhibition at 0.37 µM', 55.2),
  ('c1cncc(-c2nn(C3COC3)cc2-c2ccnc(Nc3ccc(N4CCN(C5COC5)CC4)cc3)n2)c1', 'inhibition at 0.37 µM', 48.8),
  ('CCn1cc(-c2ccnc(Nc3ccc(N4CCNCC4)cc3)n2)c(-c2cccnc2)n1', 'inhibition at 0.37 µM', 56.1);

Query string: For CCn1cc(-c2ccnc(Nc3ccc(N4CCNCC4)nc3)n2)c(-c2cccnc2)n1 , what is its reported inhibition at 0.37 µM?
Result string: 48.8

----------
Test system: BMP signal in MDA-231-D-BREFluc/Rluc cells
Assay: BMP signal inhibitory effect (AlphaScreen SureFire SMAD1 p-Ser463/465, BMP-6 stimulation)
Assay type: cell-based
Conditions: BMP-6 stimulated MDA-231-D-BREFluc/Rluc cells, phospho-SMAD1 AlphaScreen; read-out: IC50
As shown below, each of these compounds has a reported IC50 value.
The reply should read as a number followed by its unit.

In the examples that follow, each entry is paired with its recorded IC50.
INSERT INTO assay_data (compound, meas_value) VALUES
  ('CCn1cc(-c2ccnc(Nc3ccc(OC4CCNCC4F)cc3)n2)c(-c2cccnc2)n1 (stereo not shown)', '11.4 nM'),
  ('CCn1cc(-c2ccnc(Nc3ccc(N4CCNCC4)cc3)n2)c(-c2cncc(F)c2)n1', '14.8 nM'),
  ('CCn1cc(-c2ccnc(Nc3ccc4c(c3)CCNCC4)n2)c(-c2cccnc2)n1', '1.3 nM');

Would you kindly look at the next entry?
Query string: For CC(C)(O)Cn1cc(-c2ccnc(Nc3ccc4c(c3)CCN(C3COC3)C4)n2)c(-c2cccnc2)n1 , what is its reported IC50?
Result string: 16.7 nM

----------
Test system: BMP signal in MDA-231-D-BREFluc/Rluc cells
Assay: BMP signal inhibitory effect (AlphaScreen SureFire SMAD1 p-Ser463/465, BMP-6 stimulation)
Type: cell-based
Conditions: BMP-6 stimulated MDA-231-D-BREFluc/Rluc cells, phospho-SMAD1 AlphaScreen; read-out: IC50
experimental_readout: pIC50
# pIC50 is unitless: minus log10 of the molar concentration; print number only

In the examples that follow, each entry is paired with its recorded pIC50.
INSERT INTO measurements (molecule, experimental_readout, meas_value) VALUES
  ('CCn1cc(-c2ccnc(Nc3ccc4c(c3)CCN(C)C4)n2)c(-c2cccnc2)n1', 'pIC50', 8.74),
  ('CCn1cc(-c2ccnc(Nc3ccc(N4CCN(C)CC4)cc3)n2)c(-c2cccnc2)n1', 'pIC50', 7.73);

Query string: Short answer please: pIC50, BMP signal in MDA-231-D-BREFluc/Rluc cells, entry CCn1cc(-c2ccnc(Nc3ccc(-n4nc(C)nc4C)cc3)n2)c(-c2cccnc2)n1
Result string: 7.95

Query string: What do you get for CCn1cc(-c2ccnc(Nc3ccc(-c4ccncc4)cc3)n2)c(-c2cccnc2)n1 ?
Result string: 7.66
